STUDY TARGET: full length recombinant Pim-2 protein (Homo sapiens, UniProt Q9P1W9)
Construct: by full length recombinant Pim-1, Pim-2, or Pim-3 protein; hexahistidine tag followed by a thrombin cleavage site (N); made in house; host or cells: Sf9 (baculovirus) or E. coli (pET28)
Sequence (Q9P1W9 whole entry): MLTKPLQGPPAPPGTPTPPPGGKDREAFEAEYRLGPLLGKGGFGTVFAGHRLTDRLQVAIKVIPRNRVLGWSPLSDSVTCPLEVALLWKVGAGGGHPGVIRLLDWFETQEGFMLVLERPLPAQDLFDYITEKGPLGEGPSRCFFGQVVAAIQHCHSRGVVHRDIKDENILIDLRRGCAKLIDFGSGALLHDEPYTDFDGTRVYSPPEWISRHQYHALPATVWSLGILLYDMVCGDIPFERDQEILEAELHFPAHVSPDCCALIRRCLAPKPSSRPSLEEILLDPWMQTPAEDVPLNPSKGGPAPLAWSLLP
EXPERIMENT NOTES: Pim-2 enzyme assay (HTRF, phosphorylation of biotinylated-BAD (S112) peptide)
Format: biochemical
CONDITION DETAILS: read-out: Pim2_IC50
Could you mark each record Fulfilled if its IC50 falls strictly under 0.07 µM, and Not fulfilled if it equals or exceeds it?

INSERT INTO results (compound, classification) VALUES
  ('Brc1ccc2[nH]nc(-c3cncc(O[C@@H]4CNCCC45CC5)n3)c2c1 [Example 421]', 'Fulfilled'),
  ('OC1CN(c2cncc(-c3n[nH]c4ccc(-c5c(F)cccc5F)cc34)n2)CC1O (stereo not shown) [Example 450]', 'Not fulfilled'),
  ('COc1cc(-c2c[nH]c3ccc(-c4c(F)cccc4F)cc23)nc(N[C@@H]2CCCNC2)n1 [Example 278]', 'Not fulfilled'),
  ('NC1CCN(c2cc(O)nc(-c3c[nH]c4ccc(-c5c(F)cccc5F)cc34)n2)CC1 [Example 566]', 'Fulfilled'),
  ('COc1cc(C#N)cc(-c2ccc3[nH]cc(-c4cncc(O[C@@H]5CCCNC5)n4)c3c2)c1OC [Example 346]', 'Not fulfilled'),
  ('NC1CCN(c2cncc(-c3c[nH]c4ccc(-c5cncc(C6CC6)n5)cc34)n2)CC1 [Example 517]', 'Fulfilled'),
  ('c1cc2[nH]nc(-c3cncc(NC4CC4)n3)c2cc1-c1cncc(C2CC2)n1 [Example 391]', 'Fulfilled'),
  ('CC(C)(O)CNc1cncc(-c2n[nH]c3ccc(-c4cncc(C5CC5)n4)cc23)n1 [Example 392]', 'Fulfilled'),
  ('FC(F)(F)c1ccccc1-c1ccc2[nH]nc(-c3cncc(O[C@H]4CNCCC45CC5)n3)c2c1 [Example 407]', 'Fulfilled'),
  ('CC(=O)c1ccc2[nH]nc(-c3cncc(O[C@H]4CNCCC45CC5)n3)c2c1 [Example 268]', 'Not fulfilled'),
  ('CN(C)C(=O)c1ccc2[nH]nc(-c3ccnc(O[C@@H]4CCCNC4)n3)c2c1 [Example 557]', 'Not fulfilled'),
  ('C=C(Cl)c1ccccc1-c1ccc2[nH]nc(-c3cncc(O[C@H]4CNCCC45CC5)n3)c2c1 [Example 267]', 'Fulfilled'),
  ('CN1CCC(Oc2cncc(-c3n[nH]c4ccc(-c5c(F)cccc5F)cc34)n2)CC1 [Example 445]', 'Fulfilled'),
  ('COc1ccc(-c2ccc3[nH]cc(-c4cncc(O[C@@H]5CCCNC5)n4)c3c2)cc1F [Example 292]', 'Fulfilled'),
  ('N#Cc1ncccc1-c1ccc2[nH]nc(-c3cncc(O[C@H]4CNCCC45CC5)n3)c2c1 [Example 410]', 'Fulfilled'),
  ('Fc1cccc(F)c1-c1ccc2[nH]nc(-c3cncc(CC4CCCNC4)n3)c2c1 (single isomer, unassigned) [Example 274]', 'Not fulfilled'),
  ('c1cc2[nH]nc(-c3cncc(O[C@H]4CNCCC45CC5)n3)c2cc1N1CCOCC1 [Example 400]', 'Fulfilled'),
  ('OCc1ccc(-c2ccc3[nH]cc(-c4cncc(O[C@@H]5CCCNC5)n4)c3c2)cc1 [Example 316]', 'Fulfilled'),
  ('CC1(C)CC1c1ccc2[nH]cc(-c3cncc(O[C@@H]4CCCNC4)n3)c2c1 (stereo partly shown) [Example 312]', 'Fulfilled'),
  ('COC(=O)c1ccc2[nH]nc(-c3cncc(NC4CCNCC4)n3)c2c1 [Example 559]', 'Fulfilled'),
  ('COC(=O)c1ccc2[nH]nc(-c3nccc(N4CCC(N)CC4)n3)c2c1 [Example 488]', 'Fulfilled'),
  ('CC(C)OC(=O)c1ccc2[nH]nc(-c3cncc(O[C@@H]4CCCNC4)n3)c2c1 [Example 477]', 'Not fulfilled'),
  ('Fc1cccc(F)c1-c1ccc2[nH]nc(-c3cncc(OC4CCNCC45CC5)n3)c2c1 (single isomer, unassigned) [Example 429]', 'Not fulfilled'),
  ('O[C@@H]1CN(c2cncc(-c3n[nH]c4ccc(-c5c(F)cccc5F)cc34)n2)CC[C@@H]1O (single isomer, unassigned) [Example 249]', 'Not fulfilled'),
  ('NC1CCN(c2cc(-c3c[nH]c4ccc(-c5ccccc5F)nc34)nc(O)n2)CC1 [Example 288]', 'Not fulfilled'),
  ('Cc1nc(-c2cccc(-c3ccc4[nH]cc(-c5cncc(O[C@@H]6CCCNC6)n5)c4c3)c2)cs1 [Example 357]', 'Not fulfilled'),
  ('c1cc2[nH]cc(-c3cncc(O[C@@H]4CCCNC4)n3)c2cc1-c1csc(N2CCCC2)n1 [Example 553]', 'Not fulfilled'),
  ('NC1CCN(c2cc(O)nc(-c3n[nH]c4ccc(-c5c(F)cccc5F)cc34)n2)CC1 [Example 482]', 'Fulfilled');
